tested on: A253 cell line; test: cells; format: functional, cell-based, Homo sapiens; conditions: Homo sapiens, A253;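 further: growth inhibition of A253 cells, read out with a cell viability assay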
Description: SANGER: Inhibition of human A253 cell growth in a cell viability assay.
quantity: IC50

Illustrative cases are given below, each with its answer.
molecule=C/C(=C\c1csc(C)n1)[C@@H]1C[C@@H]2O[C@]2(C)CCC[C@H](C)[C@H](O)[C@@H](C)C(=O)C(C)(C)[C@@H](O)CC(=O)O1 recorded_result="0.0103 µM"
molecule="C=CC(=O)N1CCCC(Nc2nc(Nc3ccc(N(C)C(=O)CC)cc3)nc3[nH]cnc23)C1 (centres undefined)" recorded_result="> 10.2 µM"
molecule=O=C(NOC[C@H](O)CO)c1ccc(F)c(F)c1Nc1ccc(I)cc1F recorded_result="1.26 µM"
molecule=NC1(c2ccc(-c3nc4ccn5c(=O)[nH]nc5c4cc3-c3ccccc3)cc2)CCC1 recorded_result="> 4 µM"
molecule=Cc1ccc(NC(=O)c2ccc(CN3CCN(C)CC3)cc2)cc1Nc1nccc(-c2cccnc2)n1 recorded_result="> 2 µM"
molecule=COC(=O)[C@H](CCSC)NC(=O)c1ccc(NC[C@@H](N)CS)cc1-c1ccccc1 recorded_result="> 1.02 µM"
molecule=COc1ccc(-c2cc3nccn3c(Nc3ncccc3C(N)=O)n2)cc1OC recorded_result="> 8 µM"
molecule=O=C(NCCCNc1nc(Nc2cccc(NC(=O)N3CCCC3)c2)ncc1I)c1cccs1 recorded_result="4.19 µM"

Consider now this further molecule.
Tell me measured IC50 for O=S(=O)(O)c1ccc2cc(/N=N/c3cc(S(=O)(=O)O)c4cccnc4c3O)ccc2c1 please.
> 16 µM

---

system: IST-SL1; experiment: cells; assay type: functional, cell-based, Homo sapiens; conditions: Homo sapiens, IST-SL1
Description: SANGER: Inhibition of human IST-SL1 cell growth in a cell viability assay.
quantity: IC50

smiles_data=COc1ccc(N(C(=O)Oc2c(C)cccc2C)c2ccnc(Nc3ccc(N4CCN(C)CC4)cc3)n2)c(OC)c1 recorded_result="> 5120 nM"
smiles_data=C[C@@H](Oc1cc(-c2cnn(C3CCNCC3)c2)cnc1N)c1c(Cl)ccc(F)c1Cl recorded_result="> 2000 nM"
smiles_data=Cc1ccc(-n2nc(C(C)(C)C)cc2NC(=O)Nc2ccc(OCCN3CCOCC3)c3ccccc23)cc1 recorded_result="> 10000 nM"
smiles_data=CN(NC(=O)CC(=O)NN(C)C(=S)c1ccccc1)C(=S)c1ccccc1 recorded_result="52.3 nM"
smiles_data=NC(=O)Nc1cc(-c2cccc(F)c2)sc1C(=O)N[C@H]1CCCNC1 recorded_result="628 nM"
smiles_data=COc1cc(N2CCC(N3CCN(C)CC3)CC2)ccc1Nc1ncc(Cl)c(Nc2ccccc2S(=O)(=O)C(C)C)n1 recorded_result="> 2000 nM"

Consider now this further compound.
Tell me measured IC50 for NC(=O)c1ccc(N(C(N)=O)c2c(F)cccc2F)nc1-c1ccc(F)cc1F please.
> 2000 nM

---

tested on: MHH-ES-1; assay: cells; format: functional, cell-based; conditions: Homo sapiens;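 further: cell growth inhibition measured by a cell viability assay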
Description: SANGER: Inhibition of human MHH-ES-1 cell growth in a cell viability assay.
quantity: pIC50
Give bare numbers, as −log10 of the molar value.

Tell me measured pIC50 for CNCc1ccc(-c2[nH]c3cc(F)cc4c3c2CCNC4=O)cc1 please.
6.30

---

system: CGTH-W-1; test: cells; assay type: functional, cell-based, Homo sapiens; conditions: Homo sapiens, CGTH-W-1;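 further: growth inhibition of human CGTH-W-1 cells measured by cell viability assay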
Description: SANGER: Inhibition of human CGTH-W-1 cell growth in a cell viability assay.
pIC50: −log10 of the molar value.
Give pIC50 for every item shown.

smiles_data=NC(=O)Nc1cc(-c2cccc(F)c2)sc1C(=O)N[C@H]1CCCNC1 quantity=pIC50 recorded_result=7.85
smiles_data=OC[C@H](Cc1ccccc1)Nc1nc(Oc2ccc3c(c2)CCC3)nc2c1ncn2Cc1ccc(-c2ccccc2)cc1 quantity=pIC50 recorded_result="< 4.99"
smiles_data=CN(C)CCOc1ccc(-c2nc(-c3ccncc3)c(-c3ccc4c(c3)CC/C4=N\O)[nH]2)cc1 quantity=pIC50 recorded_result="< 5.30"
smiles_data=COc1cc(N2CCC(N3CCN(C)CC3)CC2)ccc1Nc1ncc(Cl)c(Nc2ccccc2S(=O)(=O)C(C)C)n1 quantity=pIC50 recorded_result="< 5.70"

Go through the list and state pIC50 for each entry.
1. NC(=O)c1ccc(N(C(N)=O)c2c(F)cccc2F)nc1-c1ccc(F)cc1F
2. Nc1ccccc1NC(=O)c1ccc(CNC(=O)OCc2cccnc2)cc1
3. COc1ccc(N(C(=O)Oc2c(C)cccc2C)c2ccnc(Nc3ccc(N4CCN(C)CC4)cc3)n2)c(OC)c1
4. O=C1NC(=O)c2c1c(-c1ccccc1Cl)cc1[nH]c3ccc(O)cc3c21
5. COC(=O)[C@H](CCSC)NC(=O)c1ccc(NC[C@@H](N)CS)cc1-c1ccccc1

1: < 5.70; 2: 5.62; 3: < 5.29; 4: < 5.70; 5: < 5.99

---

tested on: UACC-62; experiment: cells; type: functional, cell-based; settings: Homo sapiens;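 further: growth inhibition of human UACC-62 cells, read out by a cell viability assay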
Description: SANGER: Inhibition of human UACC-62 cell growth in a cell viability assay.
quantity: IC50

Illustrative cases are given below, each with its answer.
smiles_data=CS(=O)(=O)N1CCN(Cc2cc3nc(-c4cccc5[nH]ncc45)nc(N4CCOCC4)c3s2)CC1 recorded_result="> 4 µM"
smiles_data=Cc1ccc(-n2nc(C(C)(C)C)cc2NC(=O)Nc2ccc(OCCN3CCOCC3)c3ccccc23)cc1 recorded_result="> 10 µM"
smiles_data=CN(NC(=O)CC(=O)NN(C)C(=S)c1ccccc1)C(=S)c1ccccc1 recorded_result="0.0232 µM"

Tell me measured IC50 for CC1=C(/C=C/C(C)=C/C=C/C(C)=C/C(=O)O)C(C)(C)CCC1 please.
> 10 µM

---

system: LS-513; assay: cells; assay type: functional, cell-based, Homo sapiens; settings: Homo sapiens, LS-513
Description: SANGER: Inhibition of human LS-513 cell growth in a cell viability assay.
pIC50: −log10 of the molar value.
Give pIC50 for every item shown.

smiles_data=COc1cc(N2CCC(N3CCN(C)CC3)CC2)ccc1Nc1ncc(Cl)c(Nc2ccccc2S(=O)(=O)C(C)C)n1 recorded_result="< 5.70"
smiles_data=Cc1ccc(C(=O)Nc2ccc(CN3CCN(C)CC3)c(C(F)(F)F)c2)cc1C#Cc1cnc2cccnn12 recorded_result="< 6.29"
smiles_data=C/C(=C\c1csc(C)n1)[C@@H]1C[C@@H]2O[C@]2(C)CCC[C@H](C)[C@H](O)[C@@H](C)C(=O)C(C)(C)[C@@H](O)CC(=O)O1 recorded_result="< 7.49"

Tell me measured pIC50 for O=C1NC(=O)c2c1c(-c1ccccc1Cl)cc1[nH]c3ccc(O)cc3c21 please.
< 5.70

---

Give IC50 for every item shown.
test system: SW1463; assay: cells; assay type: functional, cell-based; settings: Homo sapiens;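 further: growth inhibition of SW1463 cells, determined with a cell viability assay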
Description: SANGER: Inhibition of human SW1463 cell growth in a cell viability assay.

smiles_data=NC(=O)c1ccc(N(C(N)=O)c2c(F)cccc2F)nc1-c1ccc(F)cc1F quantity=IC50 recorded_result="> 2000 nM"

Go through the list and state IC50 for each entry.
1. C/C(=C\c1csc(C)n1)[C@@H]1C[C@@H]2O[C@]2(C)CCC[C@H](C)[C@H](O)[C@@H](C)C(=O)C(C)(C)[C@@H](O)CC(=O)O1
2. COC(=O)[C@H](CCSC)NC(=O)c1ccc(NC[C@@H](N)CS)cc1-c1ccccc1
3. CN(NC(=O)CC(=O)NN(C)C(=S)c1ccccc1)C(=S)c1ccccc1
4. OC[C@H](Cc1ccccc1)Nc1nc(Oc2ccc3c(c2)CCC3)nc2c1ncn2Cc1ccc(-c2ccccc2)cc1

["> 32 nM", "> 1020 nM", "> 200 nM", "> 10200 nM"]

---

Give IC50 for every item shown.
system: HuTu80; assay: cells; assay type: functional, cell-based, Homo sapiens, HUTU-80; conditions: Homo sapiens, HuTu80;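 further: growth inhibition of HuTu80 human cells, determined with a cell viability readout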
Description: SANGER: Inhibition of human HUTU-80 cell growth in a cell viability assay.

Illustrative cases are given below, each with its answer.
smiles_data=CC(C)C[C@H](NC(=O)[C@H](Cc1ccccc1)NC(=O)c1cnccn1)B(O)O quantity=IC50 recorded_result="0.533 nM"
smiles_data=NC(=O)Nc1cc(-c2cccc(F)c2)sc1C(=O)N[C@H]1CCCNC1 quantity=IC50 recorded_result="> 2000 nM"
smiles_data=NC(=O)c1ccc(N(C(N)=O)c2c(F)cccc2F)nc1-c1ccc(F)cc1F quantity=IC50 recorded_result="> 2000 nM"

Consider now this further compound.
Look up HuTu80 data: IC50 of Cc1ccc(-n2nc(C(C)(C)C)cc2NC(=O)Nc2ccc(OCCN3CCOCC3)c3ccccc23)cc1 , then report it.
> 10000 nM

---

system: NCI-H69; experiment: cells; format: functional, cell-based, Homo sapiens; details: Homo sapiens, NCI-H69
Description: SANGER: Inhibition of human NCI-H69 cell growth in a cell viability assay.
pIC50: −log10 of the molar value.
Give pIC50 for every item shown.

Illustrative cases are given below, each with its answer.
smiles_data=CN(NC(=O)CC(=O)NN(C)C(=S)c1ccccc1)C(=S)c1ccccc1 quantity=pIC50 recorded_result="< 6.70"
smiles_data=Cc1ccc(C(=O)Nc2ccc(CN3CCN(C)CC3)c(C(F)(F)F)c2)cc1C#Cc1cnc2cccnn12 quantity=pIC50 recorded_result="< 6.29"
smiles_data=Cc1ccc(-n2nc(C(C)(C)C)cc2NC(=O)Nc2ccc(OCCN3CCOCC3)c3ccccc23)cc1 quantity=pIC50 recorded_result="< 5.00"

Go through the list and state pIC50 for each entry.
1. O=C1NC(=O)c2c1c(-c1ccccc1Cl)cc1[nH]c3ccc(O)cc3c21
2. COc1ccc(N(C(=O)Oc2c(C)cccc2C)c2ccnc(Nc3ccc(N4CCN(C)CC4)cc3)n2)c(OC)c1
3. COc1cc(N2CCC(N3CCN(C)CC3)CC2)ccc1Nc1ncc(Cl)c(Nc2ccccc2S(=O)(=O)C(C)C)n1
4. C/C(=C\c1csc(C)n1)[C@@H]1C[C@@H]2O[C@]2(C)CCC[C@H](C)[C@H](O)[C@@H](C)C(=O)C(C)(C)[C@@H](O)CC(=O)O1
5. CC1(C)CCC(c2ccc(Cl)cc2)=C(CN2CCN(c3ccc(C(=O)NS(=O)(=O)c4ccc(N[C@H](CCN5CCOCC5)CSc5ccccc5)c(S(=O)(=O)C(F)(F)F)c4)cc3)CC2)C1

1. < 5.70
2. < 5.29
3. 5.81
4. 7.83
5. < 5.70
